test: qHTS profiling of the MIPE4 collection as inhibitors of Plasmodium falciparum (3D7) proliferation (AID 743344);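 also: scaled between DMSO vehicle wells and 0.29 µM artemisinin as full inhibition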
assay_conditions: P. falciparum 3D7 in erythrocytes, SYBR Green DNA fluorescence, 72 h; at 28.5 µM unless noted
Label Y when parasite growth, % of DMSO control is at or above 50%; anything below gets N.

Use the examples below as a reference point.
>  <compound>
OC1CCC(Nc2ncc3nc(Nc4c(F)cc(F)cc4F)n([C@@H]4CCOC4)c3n2)CC1 (stereo not given in full)

>  <group_label>
N

$$$$
>  <compound>
Cc1ccccc1C(=O)c1ccc(Nc2ccc(Br)cc2N)cc1Cl

>  <group_label>
N

$$$$
>  <compound>
O=C(O)C1=CO[C@@H](O[C@@H]2O[C@H](CO)[C@H](O)[C@H](O)[C@H]2O)[C@@H]2C(CO)=CC[C@H]12

>  <group_label>
Y

$$$$

## Input Identify whether the reported parasite growth, % of DMSO control of the following compound is 50% or greater: COc1c(C)c2c(c(O)c1CC=C(C)CCC(=O)O)C(=O)OC2
## Output N

---

test: qHTS profiling of the MIPE4 collection as inhibitors of Plasmodium falciparum (DD2) proliferation (AID 743345)
assay_conditions: P. falciparum Dd2 in erythrocytes, SYBR Green DNA, 72 h; at 28.5 µM unless noted
Description: Plasmodium falciparum is a virulent malarial parasite that kills 1-2 million people worldwide each year. […] Because mature erythrocytes lack DNA, only Plasmodium-derived DNA is detected. The SYBR Green viability assay was adapted from a method described previously (Plouffe et al., 2008). […] The following morning, fluorescence intensity at 485(14) nm excitation and 535(25) nm emission wavelengths was measured on an EnVision (Perkin Elmer) plate reader. […]
Labelling: parasite growth remaining, % of DMSO control (lower = more inhibition) reported below 30% becomes True; at or above becomes False.

Use the examples below as a reference point.
>  <compound>
CN1C(=O)C[C@H](C(=O)N[C@@H](Cc2cnc[nH]2)C(=O)N2CCC[C@@H]2C(N)=O)NC1=O

>  <group_label>
False

$$$$
>  <compound>
CCOC(=O)[C@@H](N)CCC(=O)N[C@@H](CSCc1ccccc1)C(=O)N[C@@H](C(=O)OCC)c1ccccc1

>  <group_label>
False

$$$$
>  <compound>
CS(=O)(=O)c1ccc(C2=C(c3ccccc3)C(=O)OC2)cc1

>  <group_label>
False

$$$$

## Input parasite growth remaining, % of DMSO control (lower = more inhibition) strictly < 30% for this compound? CCCC1OC2C[C@@H]3[C@H]4CCC5=CC(=O)C=C[C@]5(C)[C@H]4C(O)C[C@]3(C)[C@]2(C(=O)CO)O1 (stereo partly drawn)
## Output True

## Input parasite growth remaining, % of DMSO control (lower = more inhibition) strictly < 30% for this compound? O=C(Nc1ccc(OC(F)(F)F)cc1)c1sccc1NCc1ccnc2ccccc12
## Output False

## Input parasite growth remaining, % of DMSO control (lower = more inhibition) strictly < 30% for this compound? COc1cc(N2CCN(C)CC2)ccc1Nc1nc(N)c(C(=O)c2c(Cl)cccc2Cl)s1
## Output True

---

Tested on: Es-2
test: Primary qHTS to identify gynecologic anti-cancer compounds using libraries of approved drugs and bioactive compounds (AID 1345084); also: % is scaled to controls: 0 for no effect and ±100 for the full control effect; nearly all actives have a fitted effect of over 55% in size
assay_conditions: Gynecologic cancer cell panel viability, ATPlite luminescence, 48 h; series mostly up to 57.5 µM
Inconclusive results are not listed. Calls of active or inactive are those of the source. Calls come from the whole dose curve; as a rule, active = well fitted cell-killing curve with a large enough effect; inconclusive = small, poorly fitted or top-dose-only effect, or effect the other way; inactive = flat fitted curve, though single readings scatter.
outcome_measure: outcome

Please review the entries below; each comes with its answer.
>  <molecule>
NC(=O)c1ccc(N(C(N)=O)c2c(F)cccc2F)nc1-c1ccc(F)cc1F

>  <target_or_system>
Es-2

>  <outcome>
inactive

$$$$
>  <molecule>
C[C@@]1(c2cc(-c3cncnc3)c(F)cc2F)CCSC(N)=N1

>  <target_or_system>
Es-2

>  <outcome>
inactive

$$$$
>  <molecule>
COc1ccc(-c2cc3nccn3c(Nc3ncccc3C(N)=O)n2)cc1OC

>  <target_or_system>
Es-2

>  <outcome>
inactive

$$$$
>  <molecule>
COC(=O)N1CCN(Cc2cccc(NC(=O)Nc3ccc(C)nc3)c2F)CC1

>  <target_or_system>
Es-2

>  <outcome>
inactive

$$$$

Consider now this further molecule.
For COc1nccc(-c2c(-c3ccc(F)cc3)ncn2C2CCC(O)CC2)n1 (stereo not given) the molecule record lists outcome as inactive

---

test: Quantitative High-Throughput drug screen in 47 multiple myeloma cell lines against the NCATS MIPE library collection: OPM2_DSMZ cell viability assay (AID 1919872); also: nearly all actives have a fitted effect of over 30% in size
assay_conditions: OPM2 myeloma viability, CellTiter-Glo ATP luminescence, 48 h; series mostly up to 45.8 µM
Inconclusive results are not listed. The source made the active and inactive calls. Calls follow the shape of the dose curve; as a rule, active = well fitted cell-killing curve with a large enough effect; inconclusive = small, poorly fitted or top-dose-only effect, or effect the other way; inactive = no such curve, though single readings can be large or run the other way.
Answer with one of the outcomes given here: active, inactive

>  <compound>
O=C1C(CCC(O)c2ccc(F)cc2)C(c2ccc(O)cc2)N1c1ccc(F)cc1 (stereo unspecified)

>  <group_label>
inactive

$$$$

## Input Called result for C[C@@H]1O[C@@H](O[C@H]2CC[C@@]3(C)[C@H](CC[C@@H]4[C@H]3C[C@@H](O)[C@]3(C)[C@@H](C5=CC(=O)OC5)CC[C@]43O)C2)C[C@H](O)[C@@H]1O[C@H]1C[C@H](O)[C@H](O[C@H]2C[C@H](O)[C@@H](O)[C@@H](C)O2)[C@H](C)O1 (stereo in doubt)
## Output active

## Input Called result for COC(=O)Nc1ccc(-c2nc(N3CCOCC3)c3cnn(C4CCN(C(=O)OC)CC4)c3n2)cc1
## Output active

## Input Called result for C=CCc1cccc(C=NNC(=O)CN2CCN(Cc3ccccc3)CC2)c1O
## Output active

## Input Called result for O=C(O)CCC=CCC[C@@H]1[C@H](N2CCCCC2)[C@@H](O)C[C@@H]1OCc1ccc(-c2ccccc2)cc1
## Output inactive

## Input Called result for O=C(Nc1ccc(OC(F)(F)F)cc1)c1sccc1NCc1ccnc2ccccc12
## Output active

---

test: Quantitative High-Throughput drug screen in 47 multiple myeloma cell lines against the NCATS MIPE library collection: OCIMY5_PLB cell viability assay (AID 1918988); also: potency is read from the fitted curve at half-maximal effect; nearly all actives have a fitted effect of over 65% in size
assay_conditions: OCI-MY5 myeloma viability, ATP luminescence, 48 h; series mostly up to 45.8 µM
Inconclusive results are not listed. Activity calls are given as the source filed them. Calls follow the shape of the dose curve; as a rule, active = well fitted cell-killing curve with a large enough effect; inconclusive = small, poorly fitted or top-dose-only effect, or effect the other way; inactive = no such curve, though single readings can be large or run the other way.
outcome_measure: Potency

>  <compound>
O[C@@H](COc1cccc2ncccc12)CN1CCN(C2c3ccccc3[C@@H]3[C@H](c4ccccc42)C3(F)F)CC1 (stereo not given in full)

>  <outcome_measure>
Potency

>  <value_reported>
18.7 µM (active)

$$$$
>  <compound>
Nc1ncnc2c1c(-c1cccc(OCc3ccccc3)c1)cn2C1CC(CN2CCC2)C1 (stereo not given)

>  <outcome_measure>
Potency

>  <value_reported>
4.18 µM (active)

$$$$
>  <compound>
CCn1c(-c2nonc2N)nc2cncc(CNC3CCNCC3)c21

>  <outcome_measure>
Potency

>  <value_reported>
18.7 µM (active)

$$$$
>  <compound>
CCNC(=O)[C@H]1O[C@@H](n2cnc3c(N)nc(NCCc4ccc(CCC(=O)O)cc4)nc32)[C@H](O)[C@H]1O

>  <outcome_measure>
Potency

>  <value_reported>
0.0662 µM (active)

$$$$
>  <compound>
COc1cc2nc(-c3cc(F)ccc3O)nc(N[C@@H]3CNC[C@@H]3C(C)(C)O)c2cc1OC

>  <outcome_measure>
Potency

>  <value_reported>
13.2 µM (active)

$$$$

For COc1cc2nccc(Oc3ccc(NC(=O)Nc4ccc(F)cc4F)c(F)c3)c2cc1OC the compound record lists Potency as 1.87 µM (active)

For O=C(O)CCNc1cc(N2CCc3ccccc3CC2)nc(-c2ccccn2)n1 the compound record lists Potency as 23.5 µM (active)

For C[C@H]1COC2=C1C(=O)C(=O)c1c2ccc2c1CCCC2(C)C the compound record lists Potency as 20.9 µM (active)

For c1ccc(-c2oc3ncnc(NC[C@@H]4CCCO4)c3c2-c2ccccc2)cc1 the compound record lists Potency as 14.8 µM (active)

For Nc1[nH]nc2nnc(-c3c(-c4ccccc4)nn4ccccc34)cc12 the compound record lists Potency as 20.9 µM (active)

---

test: qHTS for identification of novel therapeutic agents for treatment of microphthalmiaassociated transcription factor (MiT) renal cell carcinoma (RCC) (AID 1963991);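 also: curves scaled with 100% = DMSO viability and 0% = empty wells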
assay_conditions: TFE3-RCC UOK109 viability, CellTiter-Glo, 48 h; measured here: UOK109 Z-AUC; stronger effect = lower value
Records with an inconclusive call do not appear.
outcome_measure: z-score
Answer using only a numeral; do not append any unit.

Please review the entries below; each comes with its answer.
>  <compound>
O=C(c1ccc(C(=O)N2CCC(N3CCCC3)CC2)c(Nc2ccccc2)c1)N1CCC(N2CCCC2)CC1

>  <z-score>
0.9

$$$$
>  <compound>
COc1cc(C=CC(=O)O)ccc1O

>  <z-score>
-0.0784

$$$$
>  <compound>
Nc1ccc(-c2ccc3ncc4ccc(=O)n(-c5cccc(C(F)(F)F)c5)c4c3c2)cn1

>  <z-score>
-2.43

$$$$

For N[C@@H](CC(=O)N1CCn2c(nnc2C(F)(F)F)C1)Cc1cc(F)c(F)cc1F the compound record lists z-score as 0.736

For Cc1ccccc1C(C(=O)NC1CCCCC1)N(C(=O)CNc1ccc(C#N)cc1)c1cccc(F)c1 (stereo not given) the compound record lists z-score as 0.515

Measured values drawn from PubChem BioAssay (NCATS) for this set.
